Below: a set of entries, each annotated with reported IC50.
testedOn: Nuclear Hormone Glucocorticoid Receptor (GR) (Homo sapiens)
Sequence (P04150 whole entry): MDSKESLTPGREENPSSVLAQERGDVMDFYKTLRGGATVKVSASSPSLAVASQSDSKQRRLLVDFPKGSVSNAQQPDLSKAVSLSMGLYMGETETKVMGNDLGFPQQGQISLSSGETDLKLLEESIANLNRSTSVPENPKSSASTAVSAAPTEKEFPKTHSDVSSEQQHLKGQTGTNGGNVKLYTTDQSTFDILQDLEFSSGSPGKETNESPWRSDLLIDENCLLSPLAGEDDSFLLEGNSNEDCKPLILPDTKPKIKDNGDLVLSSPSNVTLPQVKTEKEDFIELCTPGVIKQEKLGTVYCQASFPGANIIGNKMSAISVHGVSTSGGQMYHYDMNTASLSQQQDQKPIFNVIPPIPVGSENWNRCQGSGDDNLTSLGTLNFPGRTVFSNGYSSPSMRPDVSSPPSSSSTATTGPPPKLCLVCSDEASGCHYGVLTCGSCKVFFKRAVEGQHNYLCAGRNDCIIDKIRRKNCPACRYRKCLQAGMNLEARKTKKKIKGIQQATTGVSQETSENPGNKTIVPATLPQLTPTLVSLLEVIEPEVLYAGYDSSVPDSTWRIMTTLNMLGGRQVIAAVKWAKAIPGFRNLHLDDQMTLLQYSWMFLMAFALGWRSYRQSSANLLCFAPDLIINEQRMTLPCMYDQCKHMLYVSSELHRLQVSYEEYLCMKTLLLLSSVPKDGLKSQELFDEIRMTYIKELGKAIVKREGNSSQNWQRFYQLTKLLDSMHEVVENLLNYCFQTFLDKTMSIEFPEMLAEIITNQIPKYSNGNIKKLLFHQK
testProtocol: NHR Protein Interaction assay, GR
Structures can show the parent of a compound that is named as a salt.

Worked examples, 2 compounds total:
[
  {
    "compound": "CNC(C)C(=O)c1c[nH]c2ccc(F)cc12 (stereo not drawn) [BK-5F-NM-AMT, hydrochloride]",
    "IC50": "> 10 µM"
  },
  {
    "compound": "CNC(C)C(=O)c1c[nH]c2ccc(Br)cc12 (stereo not drawn) [BK-5Br-NM-AMT, hydrochloride]",
    "IC50": "> 10 µM"
  }
]

[Q] Form field: reported IC50 of CNC(C)C(=O)c1c[nH]c2ccc(Cl)cc12 (stereo not drawn) [BK-5Cl-NM-AMT, hydrochloride]
[A] > 10 µM

* * *

testedOn: Nicotinic acetylcholine Receptor α4 β2 (nAChR(a4/b2)) (Homo sapiens, UniProt P17787+P43681)
Sequence (P43681 29-627 limits assumed): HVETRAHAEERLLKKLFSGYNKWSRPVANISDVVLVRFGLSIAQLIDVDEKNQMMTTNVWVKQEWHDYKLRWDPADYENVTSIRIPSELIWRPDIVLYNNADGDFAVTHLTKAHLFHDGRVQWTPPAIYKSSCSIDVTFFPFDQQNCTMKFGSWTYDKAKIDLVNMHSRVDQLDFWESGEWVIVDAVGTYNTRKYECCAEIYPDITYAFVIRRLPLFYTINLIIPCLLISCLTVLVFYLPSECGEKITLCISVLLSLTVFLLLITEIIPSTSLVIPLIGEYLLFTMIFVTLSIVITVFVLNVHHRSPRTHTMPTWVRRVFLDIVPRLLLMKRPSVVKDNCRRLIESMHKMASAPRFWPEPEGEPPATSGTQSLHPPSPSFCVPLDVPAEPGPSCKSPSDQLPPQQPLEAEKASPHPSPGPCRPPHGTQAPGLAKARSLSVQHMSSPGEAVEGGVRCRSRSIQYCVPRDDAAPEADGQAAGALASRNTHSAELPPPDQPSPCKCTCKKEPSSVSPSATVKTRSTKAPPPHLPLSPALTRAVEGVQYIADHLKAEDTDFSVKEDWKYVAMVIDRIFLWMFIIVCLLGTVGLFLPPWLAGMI
Sequence (P17787 26-502): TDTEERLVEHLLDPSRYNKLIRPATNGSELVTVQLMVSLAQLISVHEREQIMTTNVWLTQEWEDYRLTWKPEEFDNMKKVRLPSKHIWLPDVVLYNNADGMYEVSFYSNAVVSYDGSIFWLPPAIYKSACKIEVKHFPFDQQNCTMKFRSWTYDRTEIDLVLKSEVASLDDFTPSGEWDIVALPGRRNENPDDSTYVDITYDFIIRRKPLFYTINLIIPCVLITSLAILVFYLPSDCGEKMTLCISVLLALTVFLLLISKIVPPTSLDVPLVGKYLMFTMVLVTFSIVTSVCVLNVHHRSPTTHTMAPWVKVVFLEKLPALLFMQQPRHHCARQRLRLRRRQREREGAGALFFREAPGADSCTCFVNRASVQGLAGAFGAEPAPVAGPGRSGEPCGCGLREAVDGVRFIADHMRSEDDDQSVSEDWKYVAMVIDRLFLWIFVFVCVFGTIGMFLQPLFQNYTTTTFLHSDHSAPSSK
testProtocol: cell-based
Structures can show the parent of a compound that is named as a salt.
Below: a set of entries, each annotated with reported EC50.

Worked examples, 2 compounds total:
[
  {
    "compound": "CNC(C)C(=O)c1c[nH]c2ccc(Br)cc12 (stereo not drawn) [BK-5Br-NM-AMT, hydrochloride]",
    "EC50": "> 10 µM"
  },
  {
    "compound": "CNC(C)C(=O)c1c[nH]c2ccc(Cl)cc12 (stereo not drawn) [BK-5Cl-NM-AMT, hydrochloride]",
    "EC50": "> 10 µM"
  }
]

[Q] Form field: reported EC50 of CNC(C)C(=O)c1c[nH]c2ccc(F)cc12 (stereo not drawn) [BK-5F-NM-AMT, hydrochloride]
[A] > 10 µM

* * *

Below: a set of entries, each annotated with reported pIC50.
testedOn: Opioid Receptor Delta 1 (OPRD1) (Homo sapiens)
Sequence (P41143 whole entry): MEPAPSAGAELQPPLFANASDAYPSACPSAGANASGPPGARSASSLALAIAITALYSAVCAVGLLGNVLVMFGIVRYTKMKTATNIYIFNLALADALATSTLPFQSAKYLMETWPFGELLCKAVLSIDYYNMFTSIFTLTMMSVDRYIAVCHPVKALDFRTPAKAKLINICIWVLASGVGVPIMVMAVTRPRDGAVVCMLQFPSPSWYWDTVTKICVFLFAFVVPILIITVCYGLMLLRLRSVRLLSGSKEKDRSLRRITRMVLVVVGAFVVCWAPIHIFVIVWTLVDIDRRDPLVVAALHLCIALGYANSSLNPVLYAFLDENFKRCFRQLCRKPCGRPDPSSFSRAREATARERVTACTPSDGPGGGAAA
testProtocol: cAMP assay, OPRD1
pIC50: −log10 of the molar value. Counter-ions that a name gives are not always drawn.

Worked examples, 2 compounds total:
[
  {
    "compound": "CNC(C)C(=O)c1c[nH]c2ccc(Cl)cc12 (stereo not drawn) [BK-5Cl-NM-AMT, hydrochloride]",
    "testReadout": "pIC50",
    "reading": "< 5.00"
  },
  {
    "compound": "CNC(C)C(=O)c1c[nH]c2ccc(F)cc12 (stereo not drawn) [BK-5F-NM-AMT, hydrochloride]",
    "testReadout": "pIC50",
    "reading": "< 5.00"
  }
]

Here's the next entry for you.
[Q] Form field: reported pIC50 of CNC(C)C(=O)c1c[nH]c2ccc(Br)cc12 (stereo not drawn) [BK-5Br-NM-AMT, hydrochloride]
[A] < 5.00

* * *

Below: a set of entries, each annotated with reported pEC50.
testedOn: N-methyl-D-aspartate (NMDA) Glutamate Receptor 1A/2B (NMDAR (1A/2B)) (Homo sapiens, UniProt Q05586+Q13224)
Sequence (Q13224 27-1484, other chains not shown): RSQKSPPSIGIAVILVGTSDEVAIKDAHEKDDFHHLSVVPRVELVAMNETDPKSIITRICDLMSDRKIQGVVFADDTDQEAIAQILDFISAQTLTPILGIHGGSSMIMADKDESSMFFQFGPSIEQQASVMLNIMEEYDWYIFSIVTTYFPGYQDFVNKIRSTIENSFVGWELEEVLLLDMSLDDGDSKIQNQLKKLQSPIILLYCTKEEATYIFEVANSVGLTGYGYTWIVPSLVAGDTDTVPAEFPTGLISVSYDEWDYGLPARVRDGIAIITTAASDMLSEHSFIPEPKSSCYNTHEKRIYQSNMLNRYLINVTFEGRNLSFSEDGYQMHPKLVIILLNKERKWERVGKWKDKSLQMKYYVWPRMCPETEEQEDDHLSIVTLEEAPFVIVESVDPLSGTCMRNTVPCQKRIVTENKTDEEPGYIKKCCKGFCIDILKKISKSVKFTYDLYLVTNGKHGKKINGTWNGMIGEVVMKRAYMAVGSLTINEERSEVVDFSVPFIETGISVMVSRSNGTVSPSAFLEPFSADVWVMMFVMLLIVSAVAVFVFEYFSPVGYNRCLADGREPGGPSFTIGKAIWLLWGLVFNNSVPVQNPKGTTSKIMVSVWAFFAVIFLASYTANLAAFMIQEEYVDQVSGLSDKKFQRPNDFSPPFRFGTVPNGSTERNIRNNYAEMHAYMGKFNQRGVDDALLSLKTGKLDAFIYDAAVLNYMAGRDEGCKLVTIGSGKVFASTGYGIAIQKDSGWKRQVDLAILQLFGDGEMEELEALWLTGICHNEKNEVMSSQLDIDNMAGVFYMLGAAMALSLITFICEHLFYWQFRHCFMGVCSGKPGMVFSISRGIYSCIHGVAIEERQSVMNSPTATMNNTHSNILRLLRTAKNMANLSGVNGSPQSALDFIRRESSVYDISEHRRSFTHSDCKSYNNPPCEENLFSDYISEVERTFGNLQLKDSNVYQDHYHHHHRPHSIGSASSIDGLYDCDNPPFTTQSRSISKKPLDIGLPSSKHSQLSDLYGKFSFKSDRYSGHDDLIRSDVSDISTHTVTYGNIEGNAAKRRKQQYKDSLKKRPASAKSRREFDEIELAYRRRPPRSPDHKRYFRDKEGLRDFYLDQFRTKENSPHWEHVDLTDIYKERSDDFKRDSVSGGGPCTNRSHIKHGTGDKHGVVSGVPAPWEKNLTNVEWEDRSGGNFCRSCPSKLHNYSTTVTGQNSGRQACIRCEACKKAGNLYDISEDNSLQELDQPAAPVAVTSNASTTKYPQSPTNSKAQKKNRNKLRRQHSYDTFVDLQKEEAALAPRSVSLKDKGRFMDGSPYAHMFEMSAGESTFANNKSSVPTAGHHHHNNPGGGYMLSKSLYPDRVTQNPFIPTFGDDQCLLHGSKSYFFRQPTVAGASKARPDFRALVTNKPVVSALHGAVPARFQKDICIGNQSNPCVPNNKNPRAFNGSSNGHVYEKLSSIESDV
testProtocol: Ion channel assay, NMDAR (1A/2B)
pEC50: −log10 of the molar value. Counter-ions that a name gives are not always drawn.

Worked examples, 2 compounds total:
[
  {
    "compound": "CNC(C)C(=O)c1c[nH]c2ccc(Cl)cc12 (stereo not drawn) [BK-5Cl-NM-AMT, hydrochloride]",
    "pEC50": "< 5.00"
  },
  {
    "compound": "CNC(C)C(=O)c1c[nH]c2ccc(F)cc12 (stereo not drawn) [BK-5F-NM-AMT, hydrochloride]",
    "pEC50": "< 5.00"
  }
]

[Q] Form field: reported pEC50 of CNC(C)C(=O)c1c[nH]c2ccc(Br)cc12 (stereo not drawn) [BK-5Br-NM-AMT, hydrochloride]
[A] < 5.00
